System: MCF-7 cells
PROTOCOL: Chemical synthetic lethality: MTT after preincubation with MGMT inhibitor Lomeguatrib
Type: cell-based, human
ASSAY_CONDITIONS: Homo sapiens, MCF7; MCF-7, compound alone, 72 h MTT; read-out: IC50
pIC50: −log10 of the molar value.
REPORTED_ENDPOINT: pIC50

MOLECULE: CCOC(=O)c1ccc(NC(=O)CSC(CC(=O)c2sc(Nc3ccccn3)nc2C)c2ccccc2F)cc1 (stereo not shown)
TARGET: MCF-7 cells
VALUE_OBSERVED: 5.64

----------
Test system: pseudo-normal cell lines (HEK293, HaCaT)
PROTOCOL: MTT assay, summary over pseudo-normal cell lines
ASSAY_CONDITIONS: Homo sapiens, 72 h, read-out: IC50 towards pseudo-normal cell lines

SAMPLE_SMILES: Cc1nc(Nc2ccccn2)sc1C(=O)/C=C/c1ccccc1F
IC50: > 50 µM

----------
Test system: panel of cancer cell lines
PROTOCOL: MTT assay, summary over the tumor cell lines
ASSAY_CONDITIONS: Homo sapiens, 72 h, read-out: IC50 toward tumor cells (depending on tumor cell line)
pIC50: −log10 of the molar value.

MOLECULE: CC(=O)c1sc(Nc2ccccn2)nc1C
TARGET: panel of cancer cell lines
pIC50: < 4.30
//
MOLECULE: CCOC(=O)c1ccc(NC(=O)CSC(CC(=O)c2sc(Nc3ccccn3)nc2C)c2ccccc2F)cc1 (stereo not drawn)
TARGET: panel of cancer cell lines
pIC50: 5.11 to 6.24
//
MOLECULE: Cc1nc(Nc2ccccn2)sc1C(=O)/C=C/c1ccccc1F
TARGET: panel of cancer cell lines
pIC50: 5.11 to 6.24

----------
System: MCF-7 (breast)
PROTOCOL: MTT assay of cell viability
ASSAY_CONDITIONS: Homo sapiens, MCF7, 72 h, MCF-7; 72 h of incubation, M ± SD
REPORTED_ENDPOINT: IC50

MOLECULE: CC(=O)N1N=C(c2sc(Nc3ccccn3)nc2C)CC1c1ccccc1F (stereo not drawn) [Compound 6]
REPORTED_ENDPOINT: IC50
VALUE_OBSERVED: 45.4 µM
--
MOLECULE: CC(=O)c1sc(Nc2ccccn2)nc1C [Compound 2]
REPORTED_ENDPOINT: IC50
VALUE_OBSERVED: > 50 µM
--
MOLECULE: Cc1nc(Nc2ccccn2)sc1C1=NNC(c2ccccc2F)C1 (stereo not drawn) [Compound 5]
REPORTED_ENDPOINT: IC50
VALUE_OBSERVED: > 50 µM
